biological target: recombinant human ALK5 (TGF-βR1) protein (Homo sapiens, UniProt P36897); construct: purchased Life Technologies PR9075A; assay: Biochemical ALK5 (TGF-βR1) assay to measure pKi (LANCE Ultra ULight kinase assay); conditions: ALK5 pKi, apparent pKi from pIC50 by Cheng-Prusoff
Sequence (P36897 34-503): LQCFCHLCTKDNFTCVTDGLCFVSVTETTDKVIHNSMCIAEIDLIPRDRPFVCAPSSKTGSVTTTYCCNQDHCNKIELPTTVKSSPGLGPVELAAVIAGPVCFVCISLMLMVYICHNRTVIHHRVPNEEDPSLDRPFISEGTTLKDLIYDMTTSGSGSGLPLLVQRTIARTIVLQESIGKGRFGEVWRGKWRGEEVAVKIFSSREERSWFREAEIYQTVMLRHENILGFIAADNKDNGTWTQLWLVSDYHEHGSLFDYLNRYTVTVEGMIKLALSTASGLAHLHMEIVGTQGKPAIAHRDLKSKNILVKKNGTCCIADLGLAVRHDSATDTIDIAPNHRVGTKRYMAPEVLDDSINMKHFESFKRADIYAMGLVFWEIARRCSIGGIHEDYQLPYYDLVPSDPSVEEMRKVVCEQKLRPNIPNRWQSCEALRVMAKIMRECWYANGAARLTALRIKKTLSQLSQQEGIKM
Readout type: Ki

[
  {
    "Compound": "Cc1cccc(-c2n[nH]cc2-c2ccc3ncc(C4C[C@H]5CC[C@@H](C4)N5)cc3n2)n1 (mixture of isomers)",
    "Result": "3.98 to 31.6 nM"
  },
  {
    "Compound": "Cc1cccc(-c2n[nH]cc2-c2ccc3ncc(C4=C[C@H]5CC[C@@H](C4)N5)cc3n2)n1 (racemic)",
    "Result": "0.0398 to 0.316 nM"
  }
]

----------
biological target: recombinant human ALK5 (TGF-βR1) protein (Homo sapiens); construct: purchased Life Technologies PR9075A; test: Biochemical ALK5 (TGF-βR1) assay to measure pKi (LANCE Ultra ULight kinase assay); conditions: apparent pKi from pIC50 by Cheng-Prusoff, read-out: ALK5 pKi (converted)
Recorded Ki for the following compounds
Readout type: Ki

[
  {
    "Compound": "CNCCn1cc(-c2cnc3ccc(-c4c(-c5cccc(C)n5)nnn4Cc4ccccc4)nc3c2)cn1",
    "Measurement target": "recombinant human ALK5 (TGF-βR1) protein (Homo sapiens)",
    "Readout type": "Ki",
    "Result": "0.0398 to 0.316 nM"
  },
  {
    "Compound": "Cc1cccc(-c2[nH]cnc2-c2ccc3ncc(-c4ccnc(C(=O)OC5CCNCC5)c4)cc3c2)n1",
    "Measurement target": "recombinant human ALK5 (TGF-βR1) protein (Homo sapiens)",
    "Readout type": "Ki",
    "Result": "0.0398 to 0.316 nM"
  },
  {
    "Compound": "Cc1cccc(-c2[nH]cnc2-c2ccc3ncc(C4=CCC(NCc5ccccc5)CC4)cc3c2)n1 (stereo not shown)",
    "Measurement target": "recombinant human ALK5 (TGF-βR1) protein (Homo sapiens)",
    "Readout type": "Ki",
    "Result": "< 0.0316 nM"
  },
  {
    "Compound": "Cc1cccc(-c2[nH]cnc2-c2ccc3ncc(C(=O)OC[C@@H]4CCCN4)cc3c2)n1",
    "Measurement target": "recombinant human ALK5 (TGF-βR1) protein (Homo sapiens)",
    "Readout type": "Ki",
    "Result": "0.398 to 3.16 nM"
  },
  {
    "Compound": "Cc1cccc(-c2n[nH]cc2-c2ccc3ncc(-c4cnc5n4CCNC5)cc3n2)n1",
    "Measurement target": "recombinant human ALK5 (TGF-βR1) protein (Homo sapiens)",
    "Readout type": "Ki",
    "Result": "0.0398 to 0.316 nM"
  },
  {
    "Compound": "Cc1cccc(-c2n[nH]cc2-c2ccc3nccc(NC(=O)CCN4CCOCC4)c3n2)n1",
    "Measurement target": "recombinant human ALK5 (TGF-βR1) protein (Homo sapiens)",
    "Readout type": "Ki",
    "Result": "0.398 to 3.16 nM"
  },
  {
    "Compound": "Cc1cccc(-c2[nH]ncc2-c2ccc3ncc(C(=O)N(C)C)cc3n2)n1",
    "Measurement target": "recombinant human ALK5 (TGF-βR1) protein (Homo sapiens)",
    "Readout type": "Ki",
    "Result": "3.98 to 31.6 nM"
  },
  {
    "Compound": "COc1[nH]nc(-c2cccc(C)n2)c1-c1ccc2ncc(N)cc2n1",
    "Measurement target": "recombinant human ALK5 (TGF-βR1) protein (Homo sapiens)",
    "Readout type": "Ki",
    "Result": "0.0398 to 0.316 nM"
  },
  {
    "Compound": "CCNC(=O)C1CCN(CCNc2cnc3ccc(-c4nc[nH]c4-c4cccc(C)n4)cc3c2)CC1",
    "Measurement target": "recombinant human ALK5 (TGF-βR1) protein (Homo sapiens)",
    "Readout type": "Ki",
    "Result": "0.398 to 3.16 nM"
  },
  {
    "Compound": "Cc1cccc(-c2n[nH]cc2-c2ccc3ncc(-c4cn(Cc5c[nH]cn5)nn4)cc3n2)n1",
    "Measurement target": "recombinant human ALK5 (TGF-βR1) protein (Homo sapiens)",
    "Readout type": "Ki",
    "Result": "< 0.0316 nM"
  },
  {
    "Compound": "Cc1cccc(-c2n[nH]cc2-c2ccc3ncc(N4CCC(N5CCCC5)CC4)cc3n2)n1",
    "Measurement target": "recombinant human ALK5 (TGF-βR1) protein (Homo sapiens)",
    "Readout type": "Ki",
    "Result": "< 0.0316 nM"
  },
  {
    "Compound": "Cc1cccc(-c2[nH]ncc2-c2ccc3ncc(C(=O)O[C@H]4CCNC4)cc3c2)n1",
    "Measurement target": "recombinant human ALK5 (TGF-βR1) protein (Homo sapiens)",
    "Readout type": "Ki",
    "Result": "0.0398 to 0.316 nM"
  },
  {
    "Compound": "Cc1cccc(-c2[nH]cnc2-c2ccc3ncc(NC(=O)C4CN5CCN4CC5)cc3c2)n1 (stereo not shown)",
    "Measurement target": "recombinant human ALK5 (TGF-βR1) protein (Homo sapiens)",
    "Readout type": "Ki",
    "Result": "0.0398 to 0.316 nM"
  },
  {
    "Compound": "Cc1cccc(-c2[nH]cnc2-c2ccc3ncc(-c4nc(C(=O)O[C@H]5CCN(C)C5)cs4)cc3c2)n1",
    "Measurement target": "recombinant human ALK5 (TGF-βR1) protein (Homo sapiens)",
    "Readout type": "Ki",
    "Result": "0.0398 to 0.316 nM"
  },
  {
    "Compound": "CNCCN1CCCN(c2cnc3ccc(-c4c[nH]nc4-c4cccc(C)n4)nc3c2)CC1",
    "Measurement target": "recombinant human ALK5 (TGF-βR1) protein (Homo sapiens)",
    "Readout type": "Ki",
    "Result": "0.0398 to 0.316 nM"
  },
  {
    "Compound": "CNCc1ccnc2ccc(-c3c[nH]nc3-c3cccc(C)n3)cc12",
    "Measurement target": "recombinant human ALK5 (TGF-βR1) protein (Homo sapiens)",
    "Readout type": "Ki",
    "Result": "0.398 to 3.16 nM"
  }
]

----------
target: recombinant human ALK5 (TGF-βR1) protein (Homo sapiens, UniProt P36897); construct: purchased Life Technologies PR9075A; experiment: Biochemical ALK5 (TGF-βR1) assay to measure pKi (LANCE Ultra ULight kinase assay); conditions: apparent pKi from pIC50 by Cheng-Prusoff, read-out: ALK5 pKi (converted)
Recorded Ki for the following compounds

[
  {
    "Compound": "CNC1CCN(c2cnc3ccc(-c4c(-c5cccc(C)n5)nc5ccccn45)nc3c2)CC1",
    "Ki": "39.8 to 316 pM"
  },
  {
    "Compound": "CN[C@H]1CC[C@H](OC(=O)c2ccnc3ccc(-c4cn[nH]c4-c4cccc(C)n4)cc23)CC1",
    "Ki": "398 to 3160 pM"
  },
  {
    "Compound": "Cc1cccc(-c2[nH]cnc2-c2ccc3ncc(-c4ccc(C(=O)O)s4)cc3c2)n1",
    "Ki": "39.8 to 316 pM"
  },
  {
    "Compound": "Cc1nc(-c2n[nH]cc2-c2ccc3ncc(-c4cnn(C[C@H]5C[C@@H](N)C5)c4)cc3n2)ccc1F",
    "Ki": "39.8 to 316 pM"
  },
  {
    "Compound": "Cc1cccc(-c2n[nH]cc2-c2ccc3nccc(C4COC5(CCNC5)CN4)c3n2)n1 (stereo not drawn)",
    "Ki": "3980 to 31600 pM"
  },
  {
    "Compound": "Cc1cccc(-c2n[nH]cc2-c2ccc3ncc(NCC(C)(C)N4CCN(C(C)C)CC4)cc3n2)n1",
    "Ki": "39.8 to 316 pM"
  },
  {
    "Compound": "FC(F)c1cccc(-c2n[nH]cc2-c2ccc3ncc(N4CCCNCC4)cc3n2)n1",
    "Ki": "39.8 to 316 pM"
  },
  {
    "Compound": "Cc1nc(-c2n[nH]cc2-c2ccc3ncc(-c4ncc5n4CCNC5)cc3n2)ccc1F",
    "Ki": "398 to 3160 pM"
  },
  {
    "Compound": "Cc1cccc(-c2[nH]cnc2-c2ccc3ncc(C4=CCC(NCC5CCC(=O)O5)CC4)cc3c2)n1 (stereo not drawn)",
    "Ki": "39.8 to 316 pM"
  },
  {
    "Compound": "Cc1cccc(-c2[nH]cnc2-c2ccc3ncc(C(=O)O[C@@H]4CCN(C)C4)cc3c2)n1",
    "Ki": "398 to 3160 pM"
  },
  {
    "Compound": "CCOC(=O)C1CC=C(c2cnc3ccc(-c4nc[nH]c4-c4cccc(C)n4)cc3c2)CC1 (stereo not drawn)",
    "Ki": "39.8 to 316 pM"
  },
  {
    "Compound": "Cc1cccc(-c2[nH]cnc2-c2ccc3ncc(-c4ccc(C(=O)OC5CCNCC5)nc4)cc3c2)n1",
    "Ki": "39.8 to 316 pM"
  },
  {
    "Compound": "Cc1cccc(-c2[nH]cnc2-c2ccc3ncc(-c4ccc5c(c4)CNC5)cc3c2)n1",
    "Ki": "< 31.6 pM"
  },
  {
    "Compound": "Cc1cccc(-c2[nH]cnc2-c2ccc3ncc(-c4csc(C(=O)OC[C@H]5CC[C@H](N)CC5)c4)cc3c2)n1 [Compound 1171]",
    "Ki": "< 31.6 pM"
  },
  {
    "Compound": "CNCCn1cc(-c2cnc3ccc(-c4nnn(Cc5ccccc5)c4-c4cccc(C)n4)cc3c2)cn1",
    "Ki": "3980 to 31600 pM"
  }
]
